measurement_notes: recombinant UMI read abundance after kanamycin selection (control-corrected) (log10(CPM+1)); higher = more efficient recombination; extreme values may be limits of the assay; sequences stand for … in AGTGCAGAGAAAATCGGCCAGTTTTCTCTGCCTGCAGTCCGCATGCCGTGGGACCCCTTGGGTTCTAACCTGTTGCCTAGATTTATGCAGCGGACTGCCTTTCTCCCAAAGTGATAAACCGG…AGGTTGGTTTCACT; site = the 11-nt donor;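 further: IS621 bridge recombinase in Escherichia coli cells against a fixed T5 target plasmid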
reported_endpoint: recombinant UMI read abundance (log10)
# respond with the number and nothing more

Some sequences with recorded recombinant UMI read abundance (log10):
sequence_record: GGACACGCATGGACCGGTTTTCCCGGTAATCCGTATTTGAC (site GGACACGCTGT)
recombinant UMI read abundance (log10): 2.38

sequence_record: TGATCGACATGGACCGGTTTTCCCGGTAATCCGTATTTGTT (site TGATCGACTAA)
recombinant UMI read abundance (log10): 0.0254

sequence_record: CCTTAGGCATGGACCGGTTTTCCCGGTAATCCGTATTTGTT (site CCTTAGGCTAA)
recombinant UMI read abundance (log10): 0.0132

sequence_record: GGCTAGGCATGGACCGGTTTTCCCGGTAATCCGTATTTGGT (site GGCTAGGCTAC)
recombinant UMI read abundance (log10): 0.271

sequence_record: CAATCCTCATGGACCGGTTTTCCCGGTAATCCGTATTTGAA (site CAATCCTCTTT)
recombinant UMI read abundance (log10): 1.98

Ask: Which measured recombinant UMI read abundance (log10) value corresponds to CGGCCATCATGGACCGGTTTTCCCGGTAATCCGTATTTGCT (site CGGTCATCTAG) ?
Result: 0

Ask: recombinant UMI read abundance (log10) for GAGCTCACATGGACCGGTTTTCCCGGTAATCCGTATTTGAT (site GCGCTCACTAT) ?
Result: 0.011

Ask: // lookup recombinant UMI read abundance (log10) for CAATGCTCATGGACCGGTTTTCCCGGTAATCCGTATTTGAC (site CAATGCTCTGT)
Result: 3.03

Ask: Which value of recombinant UMI read abundance (log10) has been reported for TAGATTACATGGACCGGTTTTCCCGGTAATCCGTATTTGTA (site TAGATTACTTA) in the records?
Result: 0.528

----------
measurement_notes: recombinant UMI read abundance after kanamycin selection (control-corrected) (log10(CPM+1)); higher = more efficient recombination; extreme values may be limits of the assay; sequences stand for … in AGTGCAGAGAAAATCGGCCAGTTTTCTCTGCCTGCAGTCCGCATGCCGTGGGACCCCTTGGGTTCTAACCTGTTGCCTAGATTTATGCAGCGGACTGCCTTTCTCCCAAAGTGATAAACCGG…AGGTTGGTTTCACT; site = the 11-nt donor
Below, each of the sequences is paired with its reported recombinant UMI read abundance (log10) value.
Give your answer as a number; write no unit.

These recorded examples may help you get a feel for the data.
sequence_record: CACTTGGCATGGACCGGTTTTCCCGGTAATCCGTATTTGGT (site CACTTGGCTCC)
reported_endpoint: recombinant UMI read abundance (log10)
value_reported: 0.103

sequence_record: CAATACCCATGGACCGGTTTTCCCGGTAATCCGTATTTGCT (site CAATCCCCTAG)
reported_endpoint: recombinant UMI read abundance (log10)
value_reported: 1.55

sequence_record: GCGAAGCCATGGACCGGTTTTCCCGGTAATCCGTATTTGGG (site GCGAAGACTCC)
reported_endpoint: recombinant UMI read abundance (log10)
value_reported: 0.0597

sequence_record: TAAGCGCCATGGACCGGTTTTCCCGGTAATCCGTATTTGTG (site GAAGCGCCTCA)
reported_endpoint: recombinant UMI read abundance (log10)
value_reported: 0.032

sequence_record: CGAGGACCATGGACCGGTTTTCCCGGTAATCCGTATTTGAG (site CGAGGACCTCT)
reported_endpoint: recombinant UMI read abundance (log10)
value_reported: 0.00302

Ask: Which value of recombinant UMI read abundance (log10) has been reported for GTGAGAACATGGACCGGTTTTCCCGGTAATCCGTATTTGGC (site GTAAGAACTGC) in the records?
Result: 2.2

Ask: Item under review: ATTGTTCCATGGACCGGTTTTCCCGGTAATCCGTATTTGGT (site TTTGTTCCTAC) . Reported recombinant UMI read abundance (log10)?
Result: 0.331

Ask: Can you look up the measured recombinant UMI read abundance (log10) of GCGTTTACATGGACCGGTTTTCCCGGTAATCCGTATTTGCT (site GCGTTTACTAG) for me?
Result: 1.6

Ask: Look up recombinant UMI read abundance (log10): GGCCTTTCATGGACCGGTTTTCCCGGTAATCCGTATTTGAC (site GGCCTTTCTGT)
Result: 0

Ask: Quick one: recombinant UMI read abundance (log10) for TAATACTCATGGACCGGTTTTCCCGGTAATCCGTATTTGCA (site TAATACTCTTG) ?
Result: 2.63

Ask: Give the measured recombinant UMI read abundance (log10) of CTGATCCCATGGACCGGTTTTCCCGGTAATCCGTATTTGTG (site CTGATCCCTCA) .
Result: 0.794

----------
Measured recombinant UMI read abundance (log10) values are reported for all entries that follow.
measurement_notes: recombinant UMI read abundance after kanamycin selection (control-corrected) (log10(CPM+1)); higher = more efficient recombination; extreme values may be limits of the assay; sequences stand for … in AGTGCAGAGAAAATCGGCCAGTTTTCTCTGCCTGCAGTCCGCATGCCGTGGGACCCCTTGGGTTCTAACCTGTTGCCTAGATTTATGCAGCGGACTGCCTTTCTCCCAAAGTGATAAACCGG…AGGTTGGTTTCACT; site = the 11-nt donor
// no unit string in output, number only

Consider the worked cases shown below.
sequence_record: ACCGAACCATGGACCGGTTTTCCCGGTAATCCGTATTTGGA (site ACCGAACCTTC)
value_reported: 0.00378
--
sequence_record: CGGAATTCATGGACCGGTTTTCCCGGTAATCCGTATTTGTT (site CGGAATGCTAA)
value_reported: 0.00572
--
sequence_record: AATGTAACATGGACCGGTTTTCCCGGTAATCCGTATTTGCA (site AATGTAACTAG)
value_reported: 0

Ask: Entry GGCCATCCATGGACCGGTTTTCCCGGTAATCCGTATTTGTT (site GGCCAACCTAA) : reported recombinant UMI read abundance (log10) = ?
Result: 0

Ask: What measured recombinant UMI read abundance (log10) goes with CCCGGTCCATGGACCGGTTTTCCCGGTAATCCGTATTTGGA (site CCCGGTCCTTA) ?
Result: 0.00376

Ask: Given the entry TATGTGGCATGGACCGGTTTTCCCGGTAATCCGTATTTGTG (site TATATGGCTCA) , report its measured recombinant UMI read abundance (log10).
Result: 0.00536

Ask: Would you mind telling me what recombinant UMI read abundance (log10) value was observed for ATATGGCCATGGACCGGTTTTCCCGGTAATCCGTATTTGAC (site ATACGGCCTGT) ?
Result: 0

----------
measurement_notes: recombinant UMI read abundance after kanamycin selection (control-corrected) (log10(CPM+1)); higher = more efficient recombination; extreme values may be limits of the assay; sequences stand for … in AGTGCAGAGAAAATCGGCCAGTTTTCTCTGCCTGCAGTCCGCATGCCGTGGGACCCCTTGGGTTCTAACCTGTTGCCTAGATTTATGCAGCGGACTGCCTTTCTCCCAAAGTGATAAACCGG…AGGTTGGTTTCACT; site = the 11-nt donor
Would you please tag the item 1 (yes) when its recombinant UMI read abundance (log10) is 0.02 or above, and 0 (no) when it is below?

sequence_record: CGTTGAACATGGACCGGTTTTCCCGGTAATCCGTATTTGTT (site CGTGGAACTAA)
group_label: 1 (yes)
--
sequence_record: TTAGAGACATGGACCGGTTTTCCCGGTAATCCGTATTTGCG (site TAAGAGACTCG)
group_label: 1 (yes)
--
sequence_record: CTGTAGGCATGGACCGGTTTTCCCGGTAATCCGTATTTGGC (site TTGTAGGCTGC)
group_label: 0 (no)
--
sequence_record: CGATGGTCATGGACCGGTTTTCCCGGTAATCCGTATTTGCT (site CGATCATCTAG)
group_label: 0 (no)
--
sequence_record: GCAGTGGCATGGACCGGTTTTCCCGGTAATCCGTATTTGGT (site GGAGTGGCTAC)
group_label: 1 (yes)

Ask: In plain terms: is recorded recombinant UMI read abundance (log10) at least 0.02 for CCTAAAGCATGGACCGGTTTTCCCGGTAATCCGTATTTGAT (site CGTAAAGCTAT) ?
Result: 0 (no)

Ask: Say whether ATCTGGACATGGACCGGTTTTCCCGGTAATCCGTATTTGCC (site ATCTGGACTGG) shows recombinant UMI read abundance (log10) of 0.02 or more.
Result: 1 (yes)

Ask: I'd appreciate it if you could say whether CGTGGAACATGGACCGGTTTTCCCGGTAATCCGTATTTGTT (site CGTGGAACTAC) has recombinant UMI read abundance (log10) at least equal to 0.02.
Result: 1 (yes)

Ask: Reported recombinant UMI read abundance (log10) at or above 0.02? CTTCTCGCATGGACCGGTTTTCCCGGTAATCCGTATTTGTA (site CTTCTCCCTTA)
Result: 1 (yes)
